Cited source for all entries: PubChem BioAssay (NCI)

- Test system: U251 CNS
- procedure text: NCI-60 one-dose screen, 48 h (100 = growth as untreated, 0 = no growth, -100 = all killed)
- reported conditions: 10 µM unless noted
About 83,000 compounds went through this panel and 20% of them were active in at least one assay; those are over-represented in the sample as a whole.
Assignment: determine reported growth for the given molecules.
Give the value, in units of %, as a plain number.

Prompt: Complete the entry with growth for `CCCCN1CCN(c2ccc3nc(-c4ccc5nc(-c6ccc(OCC)c(OCC)c6)[nH]c5c4)[nH]c3c2)CC1`
Completion: -61.4

Prompt: Complete the entry with growth for `N#Cc1c(N)nc2c(nnn2-c2cccc(Br)c2)c1N`
Completion: 93

Prompt: Complete the entry with growth for `CC[C@@H](C[C@H](CCO)c1ccccc1)c1cc2ccccc2o1`
Completion: 90.9

Prompt: Complete the entry with growth for CSc1nc(N)c(CNC(C)c2ccccc2)c(=O)n1C (stereo unspecified)
Completion: 95

Prompt: Complete the entry with growth for `CCCn1nc(-c2ccccc2)c2c(-c3ccccc3)onc2c1=O`
Completion: 72.9

Prompt: Complete the entry with growth for `Clc1ccc(-c2cn(-c3ccccc3)c(-c3ccccc3)n2)cc1`
Completion: 78.2

###

- System: DU-145 prostate
- procedure text: NCI-60 one-dose screen, 48 h (100 = growth as untreated, 0 = no growth, -100 = all killed)
- reported conditions: 10 µM unless noted
Compounds without any hit were thinned out: in the full panel of roughly 83,000, 20% have a hit. Activity calls are given as the source filed them. Rule for the calls: active = growth percent below 10; inactive = the rest.
readout label: growth

Prompt: Complete the entry with growth for `CCCc1cc(=O)oc2c3c(c4c(c12)OC(C)(C)C=C4)O[C@@H](C)[C@H](C)C3=O`
Completion: 79.4% (inactive)

Prompt: Complete the entry with growth for `CCCCN1CCN(c2ccc3nc(-c4ccc5nc(-c6cc(OC)c(OC)c(OC)c6)[nH]c5c4)[nH]c3c2)CC1`
Completion: 91.6% (inactive)

Prompt: Complete the entry with growth for COc1ccc(C2CC(c3ccccc3)=NN2c2nc(C)c(C(C)=O)s2)cc1 (stereo not given)
Completion: 102% (inactive)

Prompt: Complete the entry with growth for `N#Cc1cnn2c(-c3ccc(Cl)cc3)nc(NC3CC3)nc12`
Completion: 88.8% (inactive)

Prompt: Complete the entry with growth for `Cc1nc(Nc2ccccn2)sc1C(=O)/C=C/c1ccc(Br)cc1`
Completion: 66.7% (inactive)

Prompt: Complete the entry with growth for `Cc1ccc(/C(=N\N=C(N)N)c2ccccc2)cc1`
Completion: 10.4% (inactive)

Prompt: Complete the entry with growth for `COc1ccc(-c2cncnc2N)cc1OC`
Completion: 114% (inactive)

Prompt: Complete the entry with growth for CCOc1cc(C2C(Cl)C(=O)N2n2cnnc2)ccc1O (stereo not given)
Completion: 110% (inactive)

Prompt: Complete the entry with growth for `C[C@@H]1CC[C@@H]2[C@@H]1[C@H](OC(=O)/C=C/c1ccccc1)[C@]1(CCCOCCOCCOCCOC(=O)CCCC[C@@H]3SC[C@@H]4NC(=O)N[C@@H]43)C[C@@H](OC(=O)CO)[C@@]2(C)O1`
Completion: 103% (inactive)

Prompt: Complete the entry with growth for `COC(=O)Nc1nc2ccc(C(=O)C3CC3)cc2[nH]1`
Completion: 1.8% (active)

Prompt: Complete the entry with growth for O=C1Nc2ccccc2SC1c1ccccc1Cl (stereo not given)
Completion: 108% (inactive)

Prompt: Complete the entry with growth for `Cc1csc(NC(=O)c2sc3nc(-c4cccs4)ccc3c2N)n1`
Completion: 96.4% (inactive)

Prompt: Complete the entry with growth for `N#Cc1c(N)nc2c(nnn2-c2cccc(Br)c2)c1N`
Completion: 109% (inactive)

Prompt: Complete the entry with growth for `O=C(NC1CCOCC1)c1ccc2c(c1)CN(c1ncc(Cc3cccc(-n4cccn4)c3)s1)CC2`
Completion: 88.2% (inactive)

Prompt: Complete the entry with growth for CC(c1ccc(-n2cccn2)cc1)c1cnc(N2CCc3ccc(C(N)=O)cc3C2)s1 (stereo not given)
Completion: 88.2% (inactive)

Prompt: Complete the entry with growth for `CC(C)n1nc(C#Cc2cccc3cc(-c4cccc(C(F)(F)F)c4)ncc23)c2c(N)ncnc21`
Completion: 89.4% (inactive)

Prompt: Complete the entry with growth for `Clc1ccc(-c2nc(NCCc3ccccc3)nc3c(NCCc4ccccc4)cnn23)cc1`
Completion: 84.5% (inactive)

Prompt: Complete the entry with growth for `Cc1cnc(Nc2ccc(OCCN3CCCC3)cc2)nc1NCc1ccco1`
Completion: 83.8% (inactive)

Prompt: Complete the entry with growth for O=C(/C=C/C12c3ccccc3C(c3ccccc31)C1C(=O)N(c3ccccc3)C(=O)C12)c1ccccc1 (stereo not given)
Completion: 5.98% (active)

Prompt: Complete the entry with growth for `Nc1c(-c2nc3ccccc3c(=O)[nH]2)nnn1-c1ccc(Cl)cc1`
Completion: 77.3% (inactive)

###

- Test system: HS 578T breast
- procedure text: NCI-60 one-dose screen, 48 h (100 = growth as untreated, 0 = no growth, -100 = all killed)
- reported conditions: 10 µM unless noted
About 83,000 compounds went through this panel and 20% of them were active in at least one assay; those are over-represented in the sample as a whole. Activity calls are given as the source filed them. The calls were made as follows: active = growth percent below 10; inactive = the rest.
readout label: growth

Prompt: Quote HS 578T breast growth for entry `N=C(N)c1ccc(-c2ccc(-c3ccc(Cl)cc3Cl)o2)nc1` .
Completion: -15.2% (active)

Prompt: Quote HS 578T breast growth for entry `CN(C)CCCCNc1ccc(NCCCCN(C)C)c2c1C(=O)c1c(O)ccc(O)c1C2=O` .
Completion: 92% (inactive)

Prompt: Quote HS 578T breast growth for entry `CNCCNc1nc2ccccc2c2c(=O)c3cc(F)ccc3oc12` .
Completion: 70.6% (inactive)

Prompt: Quote HS 578T breast growth for entry O=C(NCCOCCOCCNc1cccc2c1C(=O)N(C1CCCNC1=O)C2=O)c1cc2c(o1)C(=O)c1ccccc1C2=O (stereo not drawn) .
Completion: -22.2% (active)

Prompt: Quote HS 578T breast growth for entry `CCCNCC(=O)Nc1ccc(C(=O)OC(C)(C)CC)cc1` .
Completion: 105% (inactive)

Prompt: Quote HS 578T breast growth for entry `CCNCCNc1cc(-c2ccc(C(F)(F)F)cc2)c(C#N)c2nc3cc(Cl)c(Cl)cc3n12` .
Completion: -53.2% (active)

Prompt: Quote HS 578T breast growth for entry `COc1cc2c(cc1OC)-c1ccc3cc4c(cc3c1N(CCCn1ccnc1)C2)OCO4` .
Completion: 91.5% (inactive)

Prompt: Quote HS 578T breast growth for entry `COc1cc2c(cc1OC)-c1ccc3cc4c(cc3c1N(CCCN1CCCCC1)C2)OCO4` .
Completion: 56.1% (inactive)

Prompt: Quote HS 578T breast growth for entry C=C1c2c(C)nn(-c3ccc(N)cc3)c2N(C)C23CC1C1(C)c4c(C)nn(-c5ccc(N)cc5)c4N(C)C(C)(CC12)C3 (stereo not drawn) .
Completion: 90.6% (inactive)

Prompt: Quote HS 578T breast growth for entry `CCn1c(Sc2nnc(NC(C)=O)s2)nc2c1c(=O)n(C)c(=O)n2C` .
Completion: 86.2% (inactive)

Prompt: Quote HS 578T breast growth for entry `O=C1c2cccc3c(-c4ccc(-c5nc6c7ccccc7c7ccccc7c6[nH]5)cc4)ccc(c23)C(=O)N1CCN1CCNCC1` .
Completion: 108% (inactive)

Prompt: Quote HS 578T breast growth for entry `Cc1c(C(=O)O[C@H]2[C@@H]3[C@H](C)CC[C@H]3[C@]3(C)O[C@@]2(C2CCCCC2)C[C@H]3OC(=O)CO)ccc2ccccc12` .
Completion: -29.6% (active)

Prompt: Quote HS 578T breast growth for entry `CN(C)c1ccc2cc(-c3ccccc3F)c(N)nc2c1` .
Completion: 28.9% (inactive)

Prompt: Quote HS 578T breast growth for entry `Clc1ccc(-c2nc(NCCc3ccccc3)nc3c(NCCc4ccccc4)cnn23)cc1` .
Completion: 76.6% (inactive)

Prompt: Quote HS 578T breast growth for entry `O=C1/C(=C/c2ccccc2[N+](=O)[O-])COc2ccc(O)c(O)c21` .
Completion: -0.42% (active)

Prompt: Quote HS 578T breast growth for entry `CC(=O)C(C(C)=O)c1nc2sc3cc(Cl)ccc3n2c(=N)c1C#N` .
Completion: 48.5% (inactive)

Prompt: Quote HS 578T breast growth for entry `COc1cccc(-c2cnco2)c1OCc1c(C)c(COc2c(OC)cccc2-c2cnco2)c(C)c(COc2c(OC)cccc2-c2cnco2)c1C` .
Completion: 30.8% (inactive)

Prompt: Quote HS 578T breast growth for entry `C=CC(=O)Nc1cccc(C)c1Nc1cc(-c2cccnc2Cc2c(C)c(OC)cc(OC)c2C)ncn1` .
Completion: 29.6% (inactive)

Prompt: Quote HS 578T breast growth for entry `Cc1nc(Nc2ccc(S(=O)(=O)Nc3cc(C)on3)cc2)c2ccccc2n1` .
Completion: 108% (inactive)

Prompt: Quote HS 578T breast growth for entry `O=C(CCc1nc(-c2cccc(Cl)c2)no1)Nc1ccccn1` .
Completion: 93.8% (inactive)

Prompt: Quote HS 578T breast growth for entry COc1ccc(C2CC(c3cnccn3)=NN2)cc1OC (stereo not drawn) .
Completion: 97.4% (inactive)

Prompt: Quote HS 578T breast growth for entry `Cc1cc(N(CCCNc2ccnc3cc(Cl)ccc23)Cc2ccccn2)nc(N2CCOCC2)n1` .
Completion: 80.9% (inactive)

Prompt: Quote HS 578T breast growth for entry `COc1cc(NC(=O)c2cccc(-c3cc(=O)c4c(O)c(OC)c(OC)cc4o3)c2)cc(OC)c1OC` .
Completion: -3.91% (active)

Prompt: Quote HS 578T breast growth for entry `Cn1ccc(Cc2cnc(N)s2)n1` .
Completion: 93.5% (inactive)

Prompt: Quote HS 578T breast growth for entry `COc1ccc(/C(C)=C(\c2ccc(Cl)cc2)c2ccc(OCCN3CCCCCC3)cc2)cc1F` .
Completion: 44.1% (inactive)

Prompt: Quote HS 578T breast growth for entry `C[C@@H]1C(=O)N(C[C@@H](Cc2ccccc2)NC(=O)OCc2ccccc2)[C@]1(Cc1ccccc1)C(=O)OCc1ccccc1` .
Completion: 55.2% (inactive)

Prompt: Quote HS 578T breast growth for entry `CCCCCCCCn1cc(C2=C(c3coc4ccc(OC)cc34)C(=O)NC2=O)c2ccccc21` .
Completion: 101% (inactive)

Prompt: Quote HS 578T breast growth for entry `Cc1cc(-c2ccc(N(C)C)cc2)c2sc(=O)[nH]c2n1` .
Completion: 48.1% (inactive)

Prompt: Quote HS 578T breast growth for entry `O=C(NCc1cn(Cc2cccc(Oc3ccccc3)c2)nn1)c1cccnc1NCc1ccc(Cl)cc1` .
Completion: 23.8% (inactive)

Prompt: Quote HS 578T breast growth for entry `Cc1nc(Nc2ccc(NC(=S)Nc3ccccc3)cc2)nc2nc(Nc3ccc(S(=O)(=O)O)cc3)[nH]c(=O)c12` .
Completion: 111% (inactive)

Prompt: Quote HS 578T breast growth for entry `COc1ccc(CN2C(=O)/C(=C\c3cc(OC)c(OC)c(OC)c3)c3ccccc32)cc1` .
Completion: 47.7% (inactive)

Prompt: Quote HS 578T breast growth for entry `C=C1C(=O)O[C@H]2[C@H]1CC/C(COC(=O)NCc1ccc(Cn3c(=O)sn(CCCCl)c3=O)cc1)=C\CC[C@@]1(C)O[C@@H]21` .
Completion: 88.2% (inactive)

Prompt: Quote HS 578T breast growth for entry `Cl.Fc1c[c-]c(-c2ccccn2)c(F)c1.[Pt].c1ccc([PH+](C[PH+](c2ccccc2)c2ccccc2)c2ccccc2)cc1` .
Completion: -25.2% (active)

Prompt: Quote HS 578T breast growth for entry `CCN(CC)CCOC(=O)N1c2ccccc2Sc2ccccc21` .
Completion: 91.7% (inactive)

Prompt: Quote HS 578T breast growth for entry `O=C(NCCN1CCC(O)CC1)c1cc2c(o1)C(=O)c1ccccc1C2=O` .
Completion: -27.4% (active)

Prompt: Quote HS 578T breast growth for entry `O=[N+]([O-])c1ccc(-c2cc3c(Nc4ccc(Cl)c(C(F)(F)F)c4)ncnc3s2)cc1` .
Completion: 37.9% (inactive)

Prompt: Quote HS 578T breast growth for entry O=C(O)CC1Sc2ccccc2NC1=O (stereo not drawn) .
Completion: 133% (inactive)

Prompt: Quote HS 578T breast growth for entry `NS(=O)(=O)c1cn(-c2ncnc3nc[nH]c23)ccc1=O` .
Completion: 102% (inactive)
